Molecular target: T1, human G-CSF receptor (human, UniProt Q99062 25-836)
T1 sequence (looked up): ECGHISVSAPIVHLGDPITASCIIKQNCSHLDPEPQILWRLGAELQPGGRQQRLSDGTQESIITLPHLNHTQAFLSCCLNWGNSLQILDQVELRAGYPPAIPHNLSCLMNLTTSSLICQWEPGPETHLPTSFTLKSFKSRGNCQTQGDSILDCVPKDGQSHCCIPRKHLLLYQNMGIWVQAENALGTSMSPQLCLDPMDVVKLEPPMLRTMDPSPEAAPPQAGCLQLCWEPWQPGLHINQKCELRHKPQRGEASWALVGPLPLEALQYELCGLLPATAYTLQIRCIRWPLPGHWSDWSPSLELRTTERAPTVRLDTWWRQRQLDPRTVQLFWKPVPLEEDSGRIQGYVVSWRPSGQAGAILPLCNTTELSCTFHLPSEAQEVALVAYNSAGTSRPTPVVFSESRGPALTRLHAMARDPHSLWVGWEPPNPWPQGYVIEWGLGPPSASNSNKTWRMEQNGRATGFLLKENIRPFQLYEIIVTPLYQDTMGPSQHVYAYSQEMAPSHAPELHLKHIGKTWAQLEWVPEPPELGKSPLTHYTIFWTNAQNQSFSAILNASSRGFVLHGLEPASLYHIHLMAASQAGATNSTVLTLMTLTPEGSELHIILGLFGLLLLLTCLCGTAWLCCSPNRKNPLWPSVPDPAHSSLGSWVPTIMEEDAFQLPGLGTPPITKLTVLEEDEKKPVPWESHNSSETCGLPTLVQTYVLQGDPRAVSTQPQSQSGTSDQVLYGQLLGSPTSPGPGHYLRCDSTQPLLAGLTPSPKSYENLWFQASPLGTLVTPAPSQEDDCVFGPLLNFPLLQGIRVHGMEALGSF
Assay: cell-based or functional assay
# Specific activity (% of Neupogen®), from EC50 in luciferase reporter assay listing for each entry below

{"binder": "Single-chain G-CSF dimer (K16R K34R)copy 1,2 PEG12000 (ligand, SPA-PEG 12000 covalently linked to the available PEGylation sites; number and positions not stated) TPLGPASSLPQSFLLRCLEQVRKIQGDGAALQERLCATYKLCHPEELVLLGHSLGIPWAPLSSCPSQALQLAGCLSQLHSGLFLYQGLLQALEGISPELGPTLDTLQLDVADFATTIWQQMEELGMAPALQPTQGAMPAFASAFQRRAGGVLVASHLQSFLEVSYRVLRHLAQPTPLGPASSLPQSFLLRCLEQVRKIQGDGAALQERLCATYKLCHPEELVLLGHSLGIPWAPLSSCPSQALQLAGCLSQLHSGLFLYQGLLQALEGISPELGPTLDTLQLDVADFATTIWQQMEELGMAPALQPTQGAMPAFASAFQRRAGGVLVASHLQSFLEVSYRVLRHLAQP", "readout.value": "8 % of Neupogen®"}

Now consider the entry below.
// sample Single-chain G-CSF dimer (K16R K34R)copy 1,2 PEG5000 (ligand, SPA-PEG 5000 covalently linked to the available PEGylation sites; number and positions not stated) TPLGPASSLPQSFLLRCLEQVRKIQGDGAALQERLCATYKLCHPEELVLLGHSLGIPWAPLSSCPSQALQLAGCLSQLHSGLFLYQGLLQALEGISPELGPTLDTLQLDVADFATTIWQQMEELGMAPALQPTQGAMPAFASAFQRRAGGVLVASHLQSFLEVSYRVLRHLAQPTPLGPASSLPQSFLLRCLEQVRKIQGDGAALQERLCATYKLCHPEELVLLGHSLGIPWAPLSSCPSQALQLAGCLSQLHSGLFLYQGLLQALEGISPELGPTLDTLQLDVADFATTIWQQMEELGMAPALQPTQGAMPAFASAFQRRAGGVLVASHLQSFLEVSYRVLRHLAQP , its Specific activity (% of Neupogen®), from EC50 in luciferase reporter assay was 19 % of Neupogen®

These data points were gathered from patent US20020142964A1.
